The reported measurements were obtained from patent US20200263231A1.

- assay.name: UV/VIS absorption spectra
- Format: physicochemical
- cond: 10 μM compound in 50 mM potassium phosphate buffer (pH 7.0)
measured.property: Absorbance Max (nm)

stdin: Suppose we examine the compound "CCCCN(CCC[N+](C)(C)C)C1=CC(=Cc2sc3ccccc3[n+]2C)c2ccc(OC)cc2N1c1ccccc1.[I-].[I-]" ; what Absorbance Max value has been reported?
stdout: 489

stdin: Next entry: "CCCN(CCC[N+](C)(C)Cc1cccc(OC)c1)C1=CC(=Cc2sc3ccccc3[n+]2C)c2ccc(OC)cc2N1c1ccccc1.[Br-].[I-]"
stdout: 495

stdin: Likewise for "CCCN(CCCN(C)C)C1=CC(=Cc2sc3ccccc3[n+]2C)c2ccc(OC)cc2N1c1ccccc1.[I-]" ?
stdout: 493

stdin: And the next one, "CCCCN(CCC[N+](C)(C)Cc1cccc(OC)c1)C1=C/C(=C/c2sc3ccccc3[n+]2C)c2ccccc2N1c1ccccc1.[Br-].[I-]" ?
stdout: 497

stdin: Then this compound: "CCCCN(CCC[N+](C)(C)Cc1ccccc1)C1=C/C(=C/c2sc3ccccc3[n+]2C)c2ccccc2N1c1ccccc1.[Br-].[I-]"
stdout: 496

stdin: Note, next up: "CCCCN(CCC[N+](C)(C)CCC)C1=C/C(=C/c2sc3ccccc3[n+]2C)c2ccccc2N1c1ccccc1.[I-].[I-]"
stdout: 496

stdin: Now consider "CCCCN(CCC[N+](C)(C)Cc1cccc(OC)c1)C1=CC(=Cc2sc3ccccc3[n+]2C)c2ccc(OC)cc2N1c1ccccc1.[Br-].[I-]" and answer again.
stdout: 490

stdin: Then what about the compound "CCN(CCC[N+](C)(C)Cc1cccc(OC)c1)C1=C/C(=C/c2sc3ccccc3[n+]2C)c2ccccc2N1c1ccccc1.[Br-].[I-]" ?
stdout: 497

stdin: Same again, this time with "CCN(CC[N+](C)(C)C)C1=C/C(=C/c2sc3ccccc3[n+]2C)c2ccc(OC)cc2N1c1ccccc1.[I-].[I-]"
stdout: 499

stdin: Further, for "CCCN(CCC[N+](C)(C)Cc1ccccc1)C1=C/C(=C/c2sc3ccccc3[n+]2C)c2ccc(OC)cc2N1c1ccccc1.[Br-].[I-]" ?
stdout: 494

stdin: Field entry: "CCC[N+](C)(C)CCN(CC)C1=C/C(=C/c2sc3ccccc3[n+]2C)c2ccc(OC)cc2N1c1ccccc1.[I-].[I-]"
stdout: 496

stdin: Now try "CCCCN(CCCN(C)C)C1=C/C(=C/c2sc3ccccc3[n+]2C)c2ccccc2N1c1ccccc1.[I-]" .
stdout: 495

stdin: Entry "CCCCN(CCCN(C)C)C1=CC(=Cc2sc3ccccc3[n+]2C)c2ccc(OC)cc2N1c1ccccc1.[I-]" please
stdout: 488

stdin: Again, but for "CCN(CCCN(C)C)C1=CC(=Cc2sc3ccccc3[n+]2C)c2ccc(OC)cc2N1c1ccccc1.[I-]"
stdout: 489

stdin: Next: "CCCN(CCC[N+](C)(C)CCC)C1=C/C(=C/c2sc3ccccc3[n+]2C)c2ccccc2N1c1ccccc1.[I-].[I-]"
stdout: 501

stdin: Then this compound: "CCC[N+](C)(C)CCN(CC)C1=C/C(=C/c2sc3ccccc3[n+]2C)c2ccccc2N1c1ccccc1.[I-].[I-]"
stdout: 506

stdin: Queued: "CC[N+](C)(C)CCCN(C)C1=C/C(=C/c2sc3ccccc3[n+]2C)c2ccccc2N1c1ccccc1.[I-].[I-]"
stdout: 498

stdin: Same read-out for "CCCCN(CCC[N+](C)(C)CCO)C1=CC(=Cc2sc3ccccc3[n+]2C)c2ccc(OC)cc2N1c1ccccc1.[I-].[I-]" ?
stdout: 489

stdin: Please do the same for "CCCN(CCC[N+](C)(C)CC)C1=CC(=Cc2sc3ccccc3[n+]2C)c2ccc(OC)cc2N1c1ccccc1.[I-].[I-]" as well.
stdout: 494

stdin: Please do the same for "C[n+]1ccn(C2=C/C(=C/c3sc4ccccc4[n+]3C)c3ccccc3N2c2ccccc2)c1.[I-].[I-]" as well.
stdout: 519

stdin: Also, "CCCCN(CCC[N+](C)(C)Cc1ccccc1)C1=CC(=Cc2sc3ccccc3[n+]2C)c2ccc(OC)cc2N1c1ccccc1.[I-].[I-]" please.
stdout: 490

stdin: What do you get for "CCCN(CCC[N+](C)(C)Cc1ccccc1)C1=C/C(=C\c2sc3ccccc3[n+]2C)c2ccccc2N1c1ccccc1.[Br-].[Cl-]" ?
stdout: 502

stdin: Continue with "CCN(CCC[N+](C)(C)CC)C1=CC(=Cc2sc3ccccc3[n+]2C)c2ccc(OC)cc2N1c1ccccc1.[I-].[I-]"
stdout: 490

stdin: What do you have for "CCCN(CCC[N+](C)(C)C)C1=CC(=Cc2sc3ccccc3[n+]2C)c2ccccc2N1c1ccccc1.[Cl-].[I-]" ?
stdout: 501

stdin: // same read-out, input: "CCN(CC[N+](C)(C)CCO)C1=C/C(=C\c2sc3ccccc3[n+]2C)c2ccc(OC)cc2N1c1ccccc1.[I-].[I-]"
stdout: 498

stdin: And for "CCCCN(CCC[N+](C)(C)CC)C1=CC(=Cc2sc3ccccc3[n+]2C)c2ccc(OC)cc2N1c1ccccc1.[I-].[I-]" ?
stdout: 489
